# assay method text: Test 1: Solution Stability Test
# Format: physicochemical
# study conditions: 20 mM phosphate buffer (pH 6.5), 37° C., one hour, about 50 μg/mL

>  <smiles representation>
Cc1oc(=O)oc1COC(=O)[C@H]1[C@@H]2C[C@H](F)[C@@](N)(C(=O)O)[C@@H]21

>  <Compound's percent residue (%) pH 6.5>
98%

$$$$
>  <smiles representation>
N[C@]1(C(=O)O)[C@H]2[C@@H](C[C@@H]1F)[C@@H]2C(=O)OCOC(=O)OC12CC3CC(CC(C3)C1)C2

>  <Compound's percent residue (%) pH 6.5>
93%

$$$$
>  <smiles representation>
N[C@]1(C(=O)O)[C@H]2[C@@H](C[C@@H]1F)[C@@H]2C(=O)OCOC(=O)C12CC3CC(CC(C3)C1)C2

>  <Compound's percent residue (%) pH 6.5>
99%

$$$$
>  <smiles representation>
CC[C@H](C)[C@H](N)C(=O)N[C@]1(C(=O)O)[C@H]2[C@@H](C[C@@H]1F)[C@@H]2C(=O)O.Cl

>  <Compound's percent residue (%) pH 6.5>
101%

$$$$

# credit: patent US9428483B2
